Data origin: the supplement of paper PMC13380429

# Tested on: Calu-3
# measurement notes: cell viability relative to DMSO; higher = less toxic
# reported conditions: 72 h; 100 nM
So I've got a bunch of molecules here, and I need their cell viability values.
Kindly provide the numeric value in % only, without the unit symbol.

Query :: // cell viability lookup, key: CC(C)Nc1nc2cc(Cl)c(Cl)cc2n1[C@H]1O[C@@H](CO)[C@H](O)[C@@H]1O
Result :: 106

Query :: Report cell viability for C/C=C1\[C@H]2C=C(C)C[C@]1(N)c1ccc(=O)[nH]c1C2 [(-)-Huperzine A] please.
Result :: 96.1

Query :: Sample O=C1c2ccccc2-c2c(NCCc3ccccc3)c(=O)[nH]c3cccc1c23 — what was its cell viability?
Result :: 97.6

Query :: Name the recorded cell viability for CS(=O)(=O)OC[C@H](O)[C@@H](O)COS(C)(=O)=O .
Result :: 102

Query :: # get_value(readout='cell viability', item= CNCC(O)c1ccc(OC(=O)C(C)(C)C)c(OC(=O)C(C)(C)C)c1 (stereo not given) )
Result :: 106

----------
# Tested on: Calu-3
# measurement notes: cell viability relative to DMSO; higher = less toxic
# reported conditions: 72 h; 100 nM
I'd be grateful if you could share measured cell viability for these entries.
Please state the figure in %; there is no need to write the unit.

Query :: Any idea what its cell viability is? The compound is Cc1cn(-c2cc(NC(=O)c3ccc(C)c(Nc4nccc(-c5cccnc5)n4)c3)cc(C(F)(F)F)c2)cn1 [nilotinib]
Result :: 111

Query :: Item under review: COc1ccc(C[C@H]2NC[C@H](O)[C@H]2OC(C)=O)cc1 [anisomycin] . Reported cell viability?
Result :: 67.4

Query :: Suppose we examine the compound O=C(Oc1cccc2cccnc12)c1ccccc1 [benzoxiquine] ; what cell viability value has been reported?
Result :: 95.6

Query :: Tell me the measured cell viability of COCC1(CO)C(=O)C2CCN1CC2 (stereo unspecified) [APR-246] , please.
Result :: 111

Query :: Need cell viability of Cn1cnnc1Sc1c([N+](=O)[O-])ncn1C [MNITMT] , thanks.
Result :: 94.9

Query :: Which cell viability value belongs to CN(C)C(=O)Oc1ccc[n+](C)c1 [mestinon] ?
Result :: 102

Query :: Can you look up the measured cell viability of CCCC[C@@]1(C2CCCC2)Cc2cc(OCCCC(=O)O)c(Cl)c(Cl)c2C1=O [DCPIB] for me?
Result :: 106

Query :: Using the record for COc1ccc(C(=O)N2CCCc3cc(C4=NNC(=O)SC4C)ccc32)cc1OC (stereo unspecified) , report its cell viability.
Result :: 101

Query :: Which measured cell viability value corresponds to c1ccc2nc(N3CCNCC3)ccc2c1 [quipazine] ?
Result :: 109

Query :: I would be grateful if you could share the reported cell viability for NCCc1ccc(O)c(O)c1 [dopamine] .
Result :: 100

Query :: Given the entry COc1ccc2[nH]cc(CCNC(C)=O)c2c1 [melatonin] , report its measured cell viability.
Result :: 96.8

----------
For each entry below, report its cell viability value.
# Test system: Caco-2
# measurement notes: cell viability relative to DMSO; higher = less toxic
# reported conditions: 72 h; 1 nM
Report the value in % with no unit label.

Query :: Test system Caco-2; read-out cell viability; what value for Cc1nc(Nc2ccc(F)cc2)nc(N2CCc3ccccc3C2C)c1C (centres undefined) [revaprazan] ?
Result :: 98.3

Query :: Notebook: pull reported cell viability for Caco-2, entry Cc1ccc(O)c([C@H](CCN(C(C)C)C(C)C)c2ccccc2)c1 [tolterodine]
Result :: 102

Query :: Report cell viability for Cn1cnnc1Sc1c([N+](=O)[O-])ncn1C [MNITMT] tested on Caco-2.
Result :: 99.9

Query :: Under Caco-2: cell viability value of Clc1ccc(CO/N=C(\Cn2ccnc2)c2ccc(Cl)cc2Cl)c(Cl)c1 [oxiconazole] ?
Result :: 106

Query :: Which cell viability is reported with Caco-2 for this entry: C[C@]12Cc3c[nH]nc3C[C@@H]1CC[C@@H]1[C@@H]2CC[C@@]2(C)[C@H]1CC[C@]2(C)O [stanozolol] ?
Result :: 101

Query :: Given the entry C[C@H]1[C@H](NC(=O)/C(=N\OC(C)(C)C(=O)O)c2csc(N)n2)C(=O)N1S(=O)(=O)O [aztreonam] , what cell viability was observed with Caco-2?
Result :: 96.9

Query :: cell viability of CNC(=O)c1ccccc1Sc1ccc2c(/C=C/c3ccccn3)n[nH]c2c1 [axitinib] on Caco-2?
Result :: 97.2

Query :: Request - read-out cell viability | tested on Caco-2 | compound O=C(/C=C/c1ccccc1)NCCO [brolitene]
Result :: 102

Query :: Request body: readout cell viability, system Caco-2, query O=c1cc(N2CCN(c3cccc(C(F)(F)F)c3)CC2)[nH]c(=O)n1C1CCCCC1 [ML179] . Return the value.
Result :: 95.5

----------
# System: HepG2
# measurement notes: drug sensitivity score (DSS) for viability; higher = more toxic; extreme values may be limits of the assay
# reported conditions: 72 h
Where a name gives a salt, the structure may show the parent alone.
property name: drug sensitivity score
Number only, please.

Query :: Given the compound C[N+]1(C)CCCC(OC(=O)C(O)(c2ccccc2)c2ccccc2)C1 (configuration not stated) [mepenzolate] , what is its reported drug sensitivity score?
Result :: 0

Query :: What does the data say about its drug sensitivity score? Entry: CCCC[N+]1(C)[C@@H]2C[C@@H](OC(=O)[C@H](CO)c3ccccc3)C[C@H]1[C@@H]1O[C@@H]12 (some centres not stated) [butylscopolamine-bromide]
Result :: 0

Query :: Which drug sensitivity score is listed for Cc1cccc(C(=O)O)c1O [hydroxytoluic-acid] ?
Result :: 0

Query :: # query: drug sensitivity score of entry c1ccc2c(Cc3c[nH]c4ccccc34)c[nH]c2c1 [3,3'-diindolylmethane]
Result :: 1.1

Query :: Returns the measured drug sensitivity score for the input compound. Input: CCN(CC)CCNc1ccc(CO)c2sc3ccccc3c(=O)c12 [hycanthone]
Result :: 9.1

Query :: For CC(C)(O)c1ccccc1CC[C@@H](SCC1(CC(=O)O)CC1)c1cccc(/C=C/c2ccc3ccc(Cl)cc3n2)c1 [montelukast] , what is its reported drug sensitivity score?
Result :: 0

Query :: Quick one: drug sensitivity score for COc1c(OCCCN2CCOCC2)ccc2c1N=C(NC(=O)c1cnc(N)nc1)N1CCN=C21 [copanlisib] ?
Result :: 6

Query :: Using the record for CN(C)C(=N)NCCC[C@H](N)C(=O)O [asymmetrical-dimethylarginine] , report its drug sensitivity score.
Result :: 0

Query :: Form field: reported drug sensitivity score of O=C(O)/C=C/c1ccc(-c2ccc(O)c(C34CC5CC(CC(C5)C3)C4)c2)cc1 [adarotene]
Result :: 13.7

Query :: Name the reported drug sensitivity score value associated with the compound N[C@@H](C(=O)O)[C@@H](OCc1ccccc1)C(=O)O.N[C@H](C(=O)O)[C@H](OCc1ccccc1)C(=O)O [TBOA-(DL)]
Result :: 0.3

Query :: Sample CCC[C@@H]1C[C@@H](C(=O)N[C@@H]([C@H]2O[C@H](SC)[C@H](O)[C@@H](O)[C@H]2O)[C@H](C)Cl)N(C)C1 [CLINDAMYCIN HYDROCHLORIDE] — what was its drug sensitivity score?
Result :: 0

Query :: Query: drug sensitivity score; subject: FC(F)(F)c1ccccc1-n1ccnc1 [TRIM]
Result :: 0

Query :: Find the recorded drug sensitivity score belonging to O=C(O)Cn1c2c(c3cc(F)ccc31)CN(C(=O)c1cccc3ccccc13)CC2 [setipiprant] and report it.
Result :: 0

Query :: Requested field: drug sensitivity score. Item: CN1C(=O)N(c2ccc(C#N)c(C(F)(F)F)c2)C(=O)[C@]1(CO)c1ccccc1 [GLPG0492-R-enantiomer]
Result :: 0

Query :: Would you mind telling me what drug sensitivity score value was observed for CCN(Cc1ccncc1)C(=O)C(CO)c1ccccc1 (configuration not stated) [tropicamide] ?
Result :: 0

Query :: Value lookup for drug sensitivity score; key = CC1=C(C(=O)O)N2C(=O)[C@@H](NC(=O)[C@H](N)C3=CCC=CC3)[C@H]2SC1 [cephradine]
Result :: 0

Query :: Param item = CCCN(CCC)[C@H]1CCc2ccc(O)cc2C1 [7-hydroxy-DPAT] ; retrieve measured drug sensitivity score.
Result :: 0

----------
# Test system: Calu-3
# measurement notes: cell viability relative to DMSO; higher = less toxic
# reported conditions: 72 h; 1 nM
property name: cell viability (%)
// return numeric value only (unit: %, not printed)

Query :: For CCCN[C@H]1CCc2nc(N)sc2C1 [pramipexole] , what is its reported cell viability?
Result :: 91.7

Query :: # query: cell viability of entry CC(C)(C)C(=O)OCOP(=O)(COCCn1cnc2c(N)ncnc21)OCOC(=O)C(C)(C)C [adefovir-dipivoxil]
Result :: 92.9

Query :: Quick one: cell viability of CCCC[N+]1(C)[C@@H]2C[C@@H](OC(=O)[C@H](CO)c3ccccc3)C[C@H]1[C@@H]1O[C@@H]12 (some centres undefined) [butylscopolamine-bromide] ?
Result :: 110

Query :: Item under review: CCCCCCCCNC(C)C(O)c1ccc(SC(C)C)cc1 (centres undefined) [suloctidil] . Reported cell viability?
Result :: 99.4

Query :: Find the recorded cell viability belonging to FC(F)(F)c1ccccc1-n1ccnc1 [TRIM] and report it.
Result :: 98.7

Query :: Please look up its cell viability: O=C(CCCCCCC(=O)Nc1ccccc1)NO [vorinostat]
Result :: 96.1

Query :: Given O=C(O)/C=C/c1ccc(-c2ccc(O)c(C34CC5CC(CC(C5)C3)C4)c2)cc1 [adarotene] , state its recorded cell viability.
Result :: 96.9

Query :: Given the entry CC(C)c1ccc(-c2cc(=O)c3ccccc3o2)cc1 [MN-64] , report its measured cell viability.
Result :: 113

Query :: Endpoint output: cell viability of Cc1ccc(NC(=O)c2cccc(N(C)C)c2)cc1NC(=O)c1ccc(O)cc1 . Value?
Result :: 104
